Please go through the items and note down their self-cleavage kobs at 2500 uM GlcN6P.
B1: glmS ribozyme (parent)
chain: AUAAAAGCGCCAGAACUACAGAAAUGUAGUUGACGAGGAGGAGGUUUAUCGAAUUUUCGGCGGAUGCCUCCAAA

Variants of: B1
test-method-notes: self-cleavage kobs at 2500 uM GlcN6P; higher = faster cleavage; RNA array
experimental-parameters: with glucosamine-6-phosphate
Variants at the floor of the assay were thinned out.
Answers are plain numbers, in s⁻¹.

// solved cases for self-cleavage kobs at 2500 uM GlcN6P follow
AUAAAAGCGCCAGAACUACAGAAAUGUAGACGACGAGGUGGAGGUUUAUCGAAUUUUCGGCGGAUGCCUCCAAA [U30A U31C A39U] : 0.000577
AUAAAAGCGCCAGAACUACAGAAAUGUAGUUGACGAGGCGGAGGUUAAUCGAAUUUUCGGCGGAUGCCUCCAAA [A39C U47A] : 0.0021
AUAAAAGCGCCAGAACUACAGAAAUGUAGUUGACGAGGAGGAGGUUUAUCGAAUUUUCGGCGGACGCCUCUAAA [U65C C71U] : 0.000617
AUAAAAGCGCCAGAACUACAGAAAUGUAGUUGACGAGGAGGAGGUUCAUCGAAUUCUCGGCGGGUGCCUCCAAA [U47C U56C A64G] : 5.93e-05

Give self-cleavage kobs at 2500 uM GlcN6P for each listed item.
1. AUAAAAGCGCCAUAACUACAGAAAUGUAGUUGACGAGGAGGAGGUUUAUCGAAUUAUCGGCGGAUGUCUCCAAA [G13U U56A C67U]
2. AUAAAAGCGCCAGAACUACAGAAAUGUAUUUGACGAAGAGGAGGUUUAUGGAAUUUUCGGCGGAUGCGUCCAAA [G29U G37A C50G C68G]
3. AUAAAAGCGCCAGUACUACAGAAAUGUAGUUGACGAGGAGGAGGUUUAUCGAAUUUUCGGCGGAUGCCACCAAA [A14U U69A]
4. AUAAAAGCGCCAGAAGUACAGAAAUGUAGUUGACGAGGAGGAGGUUUAUCGAAGUUUCGACGGAUGCCUACAAA [C16G U54G G60A C70A]
5. AUAAAAGCGCCAAAUCUACAGAAAUGUAGUUGACGAGGAGGAGGUUUAUCGAAUUUUGGGCGGAGGCCUGCAAA [G13A A15U C58G U65G C70G]
6. AUAAAGGCGCCAGAACUACAGAAAUGUAGUUGACGAGGAGGAGGUUUAUCGAAGUUUCGGCGGAUGCCUCCAAA [A6G U54G]

RESULT:
1: 0.000115; 2: 5.37e-05; 3: 7.13e-05; 4: 3.79e-05; 5: 7.13e-05; 6: 0.000179
